Target: SARS-CoV-2 M^Pro (Severe acute respiratory syndrome coronavirus 2, UniProt P0DTD1, Q3569G)
Assay type: cell-based
Where a SMILES comes first, the peptide text is derived from it. The star is where a group is joined. Cbz = O=C(OCc1ccccc1)*
READOUT_KIND: cellular inhibition of M^Pro (in words)

CC(C)C[C@@H](C=O)NC(=O)[C@H](CC(C)C)NC(=O)[C@H](CC(C)C)NC(=O)OCc1ccccc1 [MG-132] (Cbz-Leu-Leu-Leu-aldehyde)
close to undetectable
CCCC[C@@H](C=O)NC(=O)[C@H](CC(C)C)NC(=O)OCc1ccccc1 [calpeptin]
close to undetectable
CCC[C@H](NC(=O)[C@@H]1[C@H]2CCC[C@H]2CN1C(=O)[C@@H](NC(=O)[C@@H](NC(=O)c1cnccn1)C1CCCCC1)C(C)(C)C)C(=O)C(=O)NC1CC1 [telaprevir]
close to undetectable
